assay-details: Microsomal stability in mouse liver microsomes assessed as parent compound remaining after 30 mins in presence of NADPH by LC -MS/MS analysis
Type: ADME, Microsome
conditions: read-out: Stability
quantity-name: remaining at 0.5 h (%)

| compound | quantity-name | observed-measurement |
| --- | --- | --- |
| CCCCC(NC(=O)c1[nH]c2c(c1C)C(=O)CC(C)(C)C2)C(=O)Nc1ccccc1C#N (racemic) | remaining at 0.5 h | 5.5 |
| Cc1ccc(NC(=O)[C@@H](CCC2CC2)NC(=O)c2[nH]c3c(c2C)C(=O)CC(C)(C)C3)cn1 | remaining at 0.5 h | 38.1 |
| CCCCC(NC(=O)c1[nH]c2c(c1C)C(=O)CC(C)(C)C2)C(=O)Nc1ccccc1OC (racemic) | remaining at 0.5 h | 1.7 |
| CCCCC(NC(=O)c1[nH]c2c(c1C)C(=O)CC(C)(C)C2)C(=O)Nc1cccnc1 (racemic) | remaining at 0.5 h | 44.7 |
| COc1cc2c(NC3CCN(C(C)C)CC3)nc(C3CCCCC3)nc2cc1OCCCN1CCCC1 | remaining at 0.5 h | 67 |
| CCCCC(NC(=O)c1[nH]c2c(c1C)C(=O)CC(C)(C)C2)C(=O)Nc1ccccc1Cl (racemic) | remaining at 0.5 h | 0.1 |
| Cc1c(C(=O)N[C@@H](CCC2CC2)C(=O)Nc2ccc(C#N)cc2)[nH]c2c1C(=O)CC(C)(C)C2 | remaining at 0.5 h | 19.3 |
| Cc1c(C(=O)N[C@@H](CCC2CC2)C(=O)Nc2ccccc2)[nH]c2c1C(=O)CC(C)(C)C2 | remaining at 0.5 h | 7.1 |
| CCc1c(C(=O)N[C@@H](CCC2CC2)C(=O)Nc2ccc(C#N)cc2)[nH]c2c1C(=O)CC(C)(C)C2 | remaining at 0.5 h | 40.5 |
| CCCCC(NC(=O)c1[nH]c2c(c1C)C(=O)CC(C)(C)C2)C(=O)NC1CCCCC1 (racemic) | remaining at 0.5 h | 0 |
| CCCCC(NC(=O)c1[nH]c2c(c1C)C(=O)CC(C)(C)C2)C(=O)Nc1ccc(C(N)=O)cc1 (racemic) | remaining at 0.5 h | 92.2 |

###

assay-details: Permeability of compound by PAMPA assay
Format: ADME
conditions: read-out: permeability
Decision: Papp compared against 8 ×10⁻⁶ cm/s; not below it gives 1, below it gives -1.

| molecule | discrete-label |
| --- | --- |
| Cc1ccc(NC(=O)[C@@H](CCC2CC2)NC(=O)c2[nH]c3c(c2C)C(=O)CC(C)(C)C3)cn1 | 1 |
| CCCCC(NC(=O)c1[nH]c2c(c1C)C(=O)CC(C)(C)C2)C(=O)Nc1ccc(S(C)(=O)=O)cc1 (racemic) | -1 |
| CCCCC(NC(=O)c1[nH]c2c(c1C)C(=O)CC(C)(C)C2)C(=O)Nc1ccc(C(N)=O)cc1 (racemic) | -1 |
| CCCCNC(=O)C(CCCC)NC(=O)c1[nH]c2c(c1C)C(=O)CC(C)(C)C2 (racemic) | 1 |
| CCCCC(NC(=O)c1[nH]c2c(c1C)C(=O)CC(C)(C)C2)C(=O)Nc1ccccc1OC (racemic) | 1 |
| CC(C)NCC(O)COc1cccc2ccccc12 (stereo not drawn) [PROPRANOLOL] | 1 |
| CCCCC(NC(=O)c1[nH]c2c(c1C)C(=O)CC(C)(C)C2)C(=O)Nc1ccc(C#N)cc1 (racemic) | -1 |
| CCCCC(NC(=O)c1[nH]c2c(c1C)C(=O)CC(C)(C)C2)C(=O)Nc1ccccn1 (racemic) | 1 |
| CCCCC(NC(=O)c1[nH]c2c(c1C)C(=O)CC(C)(C)C2)C(=O)Nc1ccccc1 (racemic) | 1 |
| CCCCC(NC(=O)c1[nH]c2c(c1C)C(=O)CC(C)(C)C2)C(=O)Nc1ccc(F)cc1 (racemic) | 1 |
| CCCCC(NC(=O)c1[nH]c2c(c1C)C(=O)CC(C)(C)C2)C(=O)Nc1ccccc1Cl (racemic) | -1 |
| CCCCC(NC(=O)c1[nH]c2c(c1C)C(=O)CC(C)(C)C2)C(=O)NC1CCCCC1 (racemic) | -1 |
| CCCCC(NC(=O)c1[nH]c2c(c1C)C(=O)CC(C)(C)C2)C(=O)Nc1ccncc1 (racemic) | -1 |
| Cc1c(C(=O)N[C@@H](CCC2CC2)C(=O)Nc2ccccc2)[nH]c2c1C(=O)CC(C)(C)C2 | -1 |
| CCCCC(NC(=O)c1[nH]c2c(c1C)C(=O)CC(C)(C)C2)C(=O)Nc1cccnc1 (racemic) | -1 |
| Cc1c(C(=O)N[C@@H](CCC2CC2)C(=O)Nc2ccc(C#N)cc2)[nH]c2c1C(=O)CC(C)(C)C2 | -1 |
